Field: pIC50. Provide a value for each of the molecules that follow.
- TEST TARGET: PAR2 (HT-29 cells, SLIGKV activation) (Homo sapiens, UniProt P55085)
- Construct: host or cells: HT-29 cells
- Sequence (P55085 26-397): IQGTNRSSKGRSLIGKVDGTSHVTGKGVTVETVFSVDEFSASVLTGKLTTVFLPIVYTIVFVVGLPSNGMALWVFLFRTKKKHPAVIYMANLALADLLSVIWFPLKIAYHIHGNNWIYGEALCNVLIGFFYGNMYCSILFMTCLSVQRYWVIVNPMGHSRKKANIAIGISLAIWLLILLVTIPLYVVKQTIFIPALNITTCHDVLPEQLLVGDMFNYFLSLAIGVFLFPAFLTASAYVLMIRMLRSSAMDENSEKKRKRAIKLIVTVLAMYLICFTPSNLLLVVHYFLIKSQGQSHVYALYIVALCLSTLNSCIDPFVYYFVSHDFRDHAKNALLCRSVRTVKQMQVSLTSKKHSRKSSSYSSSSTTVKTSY
- METHOD DESCRIPTION: Ca FLIPR TETRA assay, ANTAGONIST mode, stimulation with 8 μM SLIGKV
- Assay type: cell-based
- RUN CONDITIONS: HT-29 cells, antagonist mode, stimulation with 8 μM SLIGKV
Scale explanation: pIC50 corresponds to minus log10 of a concentration expressed in moles per litre.

Need pIC50, item CC(C)c1cc(-c2ccc(F)cc2)nn2cc(C(=O)N3C[C@H](C)OCC3(C)C)nc12
7.20

Thanks! And COC(=O)CN1CCN(C(=O)c2cn3nc(-c4ccc(F)cc4)cc(C(C)(C)C)c3n2)C(C)(C)C1=O ?
8.41

Thanks! And Cc1nnc(C(=O)N2CCN(C(=O)c3cn4nc(-c5ccc(C(F)F)cc5)cc(C(C)C)c4n3)C(C)(C)C2)o1 ?
7.43

Thanks! And CC1(C)CN(C(=O)c2nc[nH]n2)CCN1C(=O)c1cn2nc(-c3ccc(F)cc3)cc(C(F)(F)F)c2n1 ?
7.04

Thanks! And Cc1ccc(-c2cc(C(C)(C)C)c3nc(C(=O)N4CCN(c5cn[nH]c5)C(=O)C4(C)C)cn3n2)cc1 ?
8.82

Thanks! And Cc1n[nH]c(C(=O)N2CCN(C(=O)c3cn4nc(-c5ccc(C(F)(F)F)cc5)cc(C(C)(C)C)c4n3)C(C)(C)C2)n1 ?
9.00

Thanks! And CC(C)c1cc(-c2ccc(F)cc2)nn2cc(C(=O)N3CCN(C(=O)c4ccon4)CC3(C)C)nc12 ?
8.82
